Values from PubChem BioAssay

# Protocol: Primary imaging screen for DUSP6 inhibitors that restore phospho-Erk in transfected HeLa cells, chemical complementation (AID 609)
# Cond: HeLa MKP-3 transfected, phospho-Erk imaging KS statistic; measured here: cell density z-score; at 10 µM
Property Measured: z-score
The answer should be written as a number, with no unit following it.

// field: z-score; key: CN(C)[C@@H]1C(=O)C(C(N)=O)=C(O)[C@@]2(O)C(=O)C3=C(O)c4c(O)ccc(Cl)c4[C@@](C)(O)C3C[C@@H]12 (some centres not stated) ; value = -1.02

// field: z-score; key: "CC(C)Cc1[nH]c(=O)c(C#N)c2c1CCC2" ; value = 0.582

// field: z-score; key: "CCCCc1nc(N2CCNCC2)c(C#N)c2c1CSC(C)(C)C2" ; value = 0.415

// field: z-score; key: c1ccc2c(c1)OCC(C1=NCCN1)O2 (configuration not stated) ; value = 0.816

// field: z-score; key: "CC[C@@H](CO)NC(=O)[C@@H]1C=C2c3cccc4c3c(cn4C)C[C@H]2N(C)C1" ; value = 0.785

// field: z-score; key: Cc1ccc(C)c(C2(O)CC(C)N(C)CC2C)c1 (configuration not stated) ; value = -0.226

// field: z-score; key: "CCCC(=O)OCC[N+](C)(C)C" ; value = 0.404

// field: z-score; key: "CC(C)[C@@]1(NC(=O)[C@@H]2C[C@@H]3c4cccc5[nH]cc(c45)C[C@H]3N(C)C2)O[C@@]2(O)[C@@H]3CCCN3C(=O)[C@H](Cc3ccccc3)N2C1=O" ; value = -0.842

// field: z-score; key: "O=c1[nH]c(O)c(C=NC2CCN(Cc3ccccc3)CC2)c(=O)[nH]1" ; value = 0.26

// field: z-score; key: "CCCCn1c(O)c(C=NCCN2CCCCC2)c(=O)[nH]c1=O" ; value = 0.907

// field: z-score; key: CCCC12CN3CN(C1)CC(CCC)(C3)C2O (configuration not stated) ; value = 0.514

// field: z-score; key: "CCCCC1(CN2CCCC2=O)C(=O)NC(=O)NC1=O" ; value = 0.342

// field: z-score; key: "CCOC(=O)C1=C(C)OC(N)=C(C(=O)OCC)[C@@]12C(=O)N(CC(N)=O)c1ccccc12" ; value = -0.479

// field: z-score; key: "COc1ccc(Cn2c(O)c(C=NCCN3CCOCC3)c(=O)[nH]c2=O)cc1" ; value = 0.642

// field: z-score; key: "O=c1[nH]c2ccccc2n1CCCN1CCC(n2c(=O)[nH]c3cc(Cl)ccc32)CC1" ; value = -1.29

// field: z-score; key: "CN1CC[C@@]23CCCC[C@@H]2[C@@H]1Cc1ccc(O)cc13" ; value = -1.02

// field: z-score; key: "CNCCc1c[nH]c2ccccc12" ; value = -0.539

// field: z-score; key: "CCCCc1nc2ccccc2c(=O)n1-c1ccccc1O" ; value = -0.399

// field: z-score; key: "CN1CCc2nc(SCC(=O)OC(C)(C)C)c(C#N)cc2C1" ; value = -1.57

// field: z-score; key: "COc1ccc(Cn2c(O)c(C=NCCCn3ccnc3)c(=O)[nH]c2=O)cc1" ; value = -1.17

// field: z-score; key: CC1=NOC2(C)Nc3ncnn3C(c3ccccc3)C12 (configuration not stated) ; value = 0.203

// field: z-score; key: CC(=O)OC1(c2ccc(C)cc2)CN2CCC1c1ccccc12 (configuration not stated) ; value = 0.866
